Taken from ChEMBL document CHEMBL1126901.

- Tested on: L5178Y
- Assay Explanation: Inhibitory concentration of compound was calculated on L5178Y cells by using clonal assay
- Format: functional, cell-based, Mus musculus
- Conditions Used: l5178y
Recorded Endpoint: IC50 (nM)

- Compound: "O=c1[nH]c(=O)n([C@H]2C[C@H](O)[C@@H](CO)O2)cc1F (stereo in doubt) [FLOXURIDINE]"
  Measured On: "L5178Y"
  Unit Tag: "nM"
  Measured: 20
- Compound: "O=c1[nH]c(=O)n([C@H]2C[C@H](O)[C@@H](CO)O2)cc1F (stereo in doubt; 22) [FLOXURIDINE]"
  Measured On: "L5178Y"
  Unit Tag: "nM"
  Measured: 5000

====

- Tested on: NIH3T3
- Assay Explanation: Inhibitory concentration was calculated on 3T3 cells by using growth assay
- Assay type: functional, cell-based, Mus musculus
- Conditions Used: Mus musculus, NIH3T3
Known IC50 of a selection of molecules

- Line Notation: "O=c1[nH]c(=S)n([C@@H]2C[C@H](O)[C@@H](CO)O2)cc1F"
  Measured On: "NIH3T3"
  IC50: "400 µM"
- Line Notation: "O=c1[nH]c(=S)n([C@H]2C[C@H](O)[C@@H](CO)O2)cc1F"
  Measured On: "NIH3T3"
  IC50: "4 µM"

====

- Test system: L5178Y
- Assay Explanation: Inhibitory concentration of compound was calculated on L5178Y cells by using growth assay
- Assay type: functional, cell-based, Mus musculus
- Conditions Used: Mus musculus, L5178Y
Recorded IC50 values for a group of molecules are listed next.
Recorded Endpoint: IC50 (µM)

- Line Notation: "O=c1[nH]c(=S)n([C@@H]2C[C@H](O)[C@@H](CO)O2)cc1F"
  Unit Tag: "µM"
  Measured: 25
- Line Notation: "O=c1[nH]c(=S)n([C@H]2C[C@H](O)[C@@H](CO)O2)cc1F"
  Unit Tag: "µM"
  Measured: 2

====

- Test system: NIH3T3
- Assay Explanation: Inhibitory concentration of compound was calculated on 3T3 cells by [14C]Leu incorporation
- Format: functional, cell-based, Mus musculus
- Conditions Used: Mus musculus, NIH3T3

- Line Notation: "O=c1[nH]c(=S)n([C@@H]2C[C@H](O)[C@@H](CO)O2)cc1F"
  Unit Tag: "µM"
  IC50: 2000
- Line Notation: "O=c1[nH]c(=S)n([C@H]2C[C@H](O)[C@@H](CO)O2)cc1F"
  Unit Tag: "µM"
  IC50: 5

====

# reported pIC50; entries follow
- System: NIH3T3
- Assay Explanation: Inhibitory concentration of compound was calculated on 3T3 cells by using clonal assay
- Assay type: functional, cell-based, Mus musculus
- Conditions Used: Mus musculus, NIH3T3
pIC50: −log10 of the molar value.
Recorded Endpoint: pIC50

- Line Notation: "O=c1[nH]c(=S)n([C@@H]2C[C@H](O)[C@@H](CO)O2)cc1F"
  Measured: 3.30
- Line Notation: "O=c1[nH]c(=S)n([C@H]2C[C@H](O)[C@@H](CO)O2)cc1F"
  Measured: 5.15

====

- Measured On: Thymidylate synthase (Mus musculus, UniProt P07607)
- Sequence (P07607 whole entry): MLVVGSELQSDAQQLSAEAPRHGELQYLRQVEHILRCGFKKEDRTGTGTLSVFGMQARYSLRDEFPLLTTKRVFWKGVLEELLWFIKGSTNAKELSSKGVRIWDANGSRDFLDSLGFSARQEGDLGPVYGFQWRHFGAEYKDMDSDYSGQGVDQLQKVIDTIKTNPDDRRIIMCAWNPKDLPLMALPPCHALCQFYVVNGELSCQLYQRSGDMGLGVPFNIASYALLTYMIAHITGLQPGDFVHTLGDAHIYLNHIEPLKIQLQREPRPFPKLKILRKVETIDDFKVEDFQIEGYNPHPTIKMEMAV
- Assay Explanation: Apparent Ki value was measured by competitive inhibition of Thymidylate Synthase from L1210 cells of mouse
- Assay type: cell-based
Recorded Endpoint: Ki (nM)

- Compound: "O=c1[nH]c(=S)n(C2C[C@@H](OP(=O)(O)O)[C@@H](COP(=O)(O)O)O2)cc1F (stereo partly specified)"
  Measured: 70
